Each recorded value in this set is attributed to ChEMBL document CHEMBL4840316.

# Experimental Target: Polyunsaturated fatty acid 5-lipoxygenase (Homo sapiens) (UniProt P09917)
# Sequence (P09917 whole entry): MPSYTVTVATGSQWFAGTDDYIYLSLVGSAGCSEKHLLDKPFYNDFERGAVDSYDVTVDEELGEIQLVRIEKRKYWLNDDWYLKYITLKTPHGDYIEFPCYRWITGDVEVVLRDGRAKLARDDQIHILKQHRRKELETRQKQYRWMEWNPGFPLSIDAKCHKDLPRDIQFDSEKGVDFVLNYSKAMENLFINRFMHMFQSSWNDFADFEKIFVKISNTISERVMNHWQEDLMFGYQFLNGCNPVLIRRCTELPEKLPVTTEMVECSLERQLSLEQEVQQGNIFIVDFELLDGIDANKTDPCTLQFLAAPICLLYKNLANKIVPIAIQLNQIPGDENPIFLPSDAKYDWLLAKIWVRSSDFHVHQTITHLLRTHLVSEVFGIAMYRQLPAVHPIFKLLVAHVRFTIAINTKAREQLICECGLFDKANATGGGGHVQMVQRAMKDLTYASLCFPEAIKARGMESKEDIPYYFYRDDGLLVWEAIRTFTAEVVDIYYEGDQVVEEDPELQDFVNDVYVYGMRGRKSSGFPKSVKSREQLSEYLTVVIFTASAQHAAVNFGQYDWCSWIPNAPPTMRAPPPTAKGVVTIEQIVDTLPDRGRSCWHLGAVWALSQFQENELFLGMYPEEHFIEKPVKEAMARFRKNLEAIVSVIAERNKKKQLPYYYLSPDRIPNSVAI
# Procedure Text: Inhibition of 5-LO in A23187/AA-stimulated human intact neutrophils assessed as reduction in LTB4/5-HETE formation by measuring residual activity at 10 uM measured after 20 mins by RP-HPLC method
# Format: tissue-based
# Condition: Neutrophil
Each entry falls in a class defined on Activity; the bands are low band = under 30%, middle band = from 30% up to 70%, high band = 70% and over

>  <Compound>
CC(=O)N1C[C@H](O)C[C@H]1c1nc(-c2ccc(-c3ccsc3)cc2)no1

>  <Assigned Class>
high band

$$$$
>  <Compound>
N[C@@H](Cc1ccc(O)cc1)c1nc(-c2ccc(-c3ccsc3)cc2)no1

>  <Assigned Class>
high band

$$$$
>  <Compound>
OCc1ccc(Cc2nc(-c3ccc(-c4ccsc4)cc3)no2)cc1

>  <Assigned Class>
middle band

$$$$
>  <Compound>
c1cc(-c2nc(-c3ccc(-c4ccsc4)cc3)no2)c2cc[nH]c2c1

>  <Assigned Class>
high band

$$$$
>  <Compound>
Oc1cccc(CCc2nc(-c3ccc(-c4ccsc4)cc3)no2)c1

>  <Assigned Class>
low band

$$$$
>  <Compound>
Oc1c(F)c(F)cc(-c2nc(-c3ccc(-c4ccsc4)cc3)no2)c1F

>  <Assigned Class>
low band

$$$$
>  <Compound>
N[C@H](c1ccc(O)cc1)c1nc(-c2ccc(-c3ccsc3)cc2)no1

>  <Assigned Class>
middle band

$$$$
>  <Compound>
CC(c1ccc(O)cc1)c1nc(-c2ccc(-c3ccsc3)cc2)no1 (stereo unspecified)

>  <Assigned Class>
low band

$$$$
>  <Compound>
CC(N)(Cc1ccc(O)cc1)c1nc(-c2ccc(-c3ccsc3)cc2)no1 (stereo unspecified)

>  <Assigned Class>
middle band

$$$$
>  <Compound>
Oc1cccc(-c2nc(-c3ccc(-c4ccsc4)cc3)no2)c1

>  <Assigned Class>
high band

$$$$
